experimentalDetails: log P by HPLC on reversed-phase column (C18), EEC Directive 79/831 Annex V.A8
Type: physicochemical
conditionDetails: C18, 40° C., aqueous formic acid / acetonitrile
observedProperty: log p HCO2H

* Cc1cc(N=CN(C)C(C)C)c(Cl)cc1Oc1ccc(Cl)c(C(C)C)c1 | 2.92
* Cc1cc(Oc2ncnc(Oc3ccc(Cl)cc3)c2F)c(Cl)cc1N=CN1CCCCC1 | 2.41
* Cc1cc(N=CN(C)C)c(Cl)cc1Oc1ccc(Cl)c(C(F)(F)F)c1 | 2.3
* Cc1cc(Oc2ccc(C#N)c(C(F)(F)F)c2)c(C)cc1N=CN1CCCCC1 | 2.14

---

experimentalDetails: log P by HPLC on reversed-phase column (C18), EEC Directive 79/831 Annex V.A8
Type: physicochemical
conditionDetails: C18, 40° C., acidic
observedProperty: log p acidic

- CCN(C)C=Nc1cc(Cl)c(Oc2nc(C3(Cl)CC3)ns2)cc1C [compound 612]: 1.72

[a] CCN(C)C=Nc1cc(C)c(Oc2ccc(Cl)c(C(C)(C)C)c2)cc1C [compound 50]
[b] CCN(C)C=Nc1cc(C)c(Oc2ccc(C#N)c(C(F)(F)F)c2)cc1C [compound 226]
Compare log p acidic: is it lower for a or for b ? Give the chosen item's label as your response.
b

---

experimentalDetails: log P by HPLC on reversed-phase column (C18), EEC Directive 79/831 Annex V.A8
Type: physicochemical
conditionDetails: C18, 40° C., 0.1% aqueous phosphoric acid / acetonitrile
observedProperty: log p H3PO4

Some compounds with recorded log p H3PO4:
• CCN(C)C=Nc1cc(C)c(Oc2ccc(Cl)c(C(F)(F)F)c2)cc1Cl [compound 893] = 2.51
• CC(C)N(C)C=Nc1cc(Cl)c(Oc2nc(C(C)(C)C)ns2)cc1Cl [compound 826] = 2.53
• CCN(C)C=Nc1cc(Cl)c(Oc2ccc(Cl)c(C(C)(C)C)c2)cc1Cl [compound 811] = 3.16

[P] CCN(C)C=Nc1cc(C)c(Oc2cccc(Oc3ccccc3)c2)cc1Cl [compound 880]
[Q] Cc1cc(N=CN(C)C(C)C)c(Cl)cc1Oc1ccc(Cl)c(C(F)(F)F)c1 [compound 894]
Endpoint returns the identifier whose log p H3PO4 is numerically larger, either P or Q . Give the chosen item's label as your response.
P
(P: 2.63, Q: 1.73)

---

experimentalDetails: log P by HPLC on reversed-phase column (C18), EEC Directive 79/831 Annex V.A8
Assay type: physicochemical
conditionDetails: C18, 40° C., aqueous formic acid / acetonitrile
observedProperty: log p HCO2H

- CC(C)(C)c1cc(Oc2cc(Cl)c(N=CN3CCCCC3)cc2C(F)(F)F)ccc1Cl: 3.68
- CC(C)N(C)C=Nc1cc(Cl)c(Oc2ccccc2)cc1Cl: 2.08
- CC(C)N(C)C=Nc1cc(Cl)c(Oc2nc(C(C)(C)C)ns2)cc1Cl: 2.78

---

experimentalDetails: log P by HPLC on reversed-phase column (C18), EEC Directive 79/831 Annex V.A8
Assay type: physicochemical
conditionDetails: C18, 40° C., aqueous formic acid / acetonitrile
observedProperty: log p HCO2H

- Cc1cc(N=CN(C)C(C)C)c(Cl)cc1Oc1ccc(Cl)c(C(C)(C)C)c1 [compound 904]: 3.01
- CCCN(C)C=Nc1cc(Cl)c(Oc2ccc(Cl)c(C(C)C)c2)cc1C [compound 571]: 3.03
- CC(C)(C)c1cccc(Oc2cc(Cl)c(N=CN3CCCCC3)cc2Cl)c1 [compound 809]: 3.04
